measuredTarget: Tyk2-JH1JH2 (Homo sapiens (Human), UniProt P29597, C1142A/C936A)
Sequence (P29597 580-1182 C936A/C1142A): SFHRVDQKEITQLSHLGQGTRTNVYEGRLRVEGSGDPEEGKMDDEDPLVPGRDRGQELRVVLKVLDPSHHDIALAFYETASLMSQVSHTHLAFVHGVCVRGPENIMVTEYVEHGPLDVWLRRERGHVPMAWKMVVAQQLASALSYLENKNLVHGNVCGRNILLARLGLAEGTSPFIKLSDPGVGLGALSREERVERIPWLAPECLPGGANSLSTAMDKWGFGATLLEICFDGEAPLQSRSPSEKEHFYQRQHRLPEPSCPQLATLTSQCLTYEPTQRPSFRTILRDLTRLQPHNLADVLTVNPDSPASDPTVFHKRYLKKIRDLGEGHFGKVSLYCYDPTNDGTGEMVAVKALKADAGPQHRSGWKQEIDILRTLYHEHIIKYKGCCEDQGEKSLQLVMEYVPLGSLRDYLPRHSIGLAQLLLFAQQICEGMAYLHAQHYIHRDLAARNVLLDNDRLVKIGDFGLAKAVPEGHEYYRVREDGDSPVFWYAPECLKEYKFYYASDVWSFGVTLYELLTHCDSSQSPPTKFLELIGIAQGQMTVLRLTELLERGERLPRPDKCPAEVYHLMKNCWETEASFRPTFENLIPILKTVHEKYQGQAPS
assayRemarks: Enzymatic inhibition assay (RapidFire HTMS), Tyk2
runParameters: 50 μM ATP, 200 μM substrate
From the text: LC/MS grade Water and Acetonitrile (ACN), were purchased from HoneyWell, Burdick & Jackson (Muskegon, Mich., USA). Dimethylsulfoxide 99.8% (DMSO) and Trifluoroacetic Acid 99.5% (TFA) were purchased from EMD Chemical (Gibbstown, N.J., USA). Adenosine triphosphate (ATP), 4-Morpholinepropanesulfonic acid (MOPS), Magnesium chloride (MgCl2), ethylenediaminetetraacetic acid (EDTA), dithiothreitol (DTT), formic acid >95% (FA) and Tween-20 were purchased from Sigma (St Louis, Mo., USA). […]
IC50 by entry:
readoutLabel: IC50 (µM)

# molecule, readoutLabel, testResult
records = [
    ("N#CC[C@H]1CC[C@H](n2c(C3CCN(c4ccc(C#N)cc4)CC3)nc3cnc4[nH]ccc4c32)CC1", "IC50", 0.0168),
    ("N#CC[C@H]1CC[C@H](n2c(CNC(=N)C34CC5CC(CC(C5)C3)C4)nc3cnc4[nH]ccc4c32)CC1", "IC50", 0.0029),
    ("CNc1nccc(-c2nc3cnc4[nH]ccc4c3n2[C@H]2CC[C@H](CC#N)CC2)n1", "IC50", 0.018),
    ("CC(C)(O)CNC(=O)Cc1nc2cnc3[nH]ccc3c2n1[C@H]1CC[C@H](CC#N)CC1", "IC50", 0.0069),
    ("N#CC[C@H]1CC[C@H](n2c(CC(=O)N3CCC(N4CCOCC4)CC3)nc3cnc4[nH]ccc4c32)CC1", "IC50", 0.0027),
    ("N#CC[C@H]1CC[C@H](n2c(CC(=O)NCC3CCCCC3)nc3cnc4[nH]ccc4c32)CC1", "IC50", 0.0156),
    ("N#CC[C@H]1CC[C@H](n2c(C(=O)NCC3(O)CCCCCC3)nc3cnc4[nH]ccc4c32)CC1", "IC50", 0.0191),
    ("N#CC[C@H]1CC[C@H](n2c(CC(=O)NCC3(O)CCC3)nc3cnc4[nH]ccc4c32)CC1", "IC50", 0.0031),
    ("N#CCc1ccc(NC(=O)Cc2nc3cnc4[nH]ccc4c3n2[C@H]2CC[C@H](CC#N)CC2)cc1", "IC50", 0.0007),
    ("CS(=O)(=O)N1CC(c2nc3cnc4[nH]ccc4c3n2[C@H]2CC[C@H](CC#N)CC2)C1", "IC50", 0.0912),
    ("C[Si](C)(C)CNC(=O)Cc1nc2cnc3[nH]ccc3c2n1[C@H]1CC[C@H](CC#N)CC1", "IC50", 0.0292),
    ("N#CC[C@H]1CC[C@H](n2c(C(=O)NCCO)nc3cnc4[nH]ccc4c32)CC1", "IC50", 0.0127),
    ("N#CC[C@H]1CC[C@H](n2c(CC(=O)NCC(O)c3ccccc3)nc3cnc4[nH]ccc4c32)CC1 (some centres unmarked)", "IC50", 0.0074),
    ("N#CC[C@H]1CC[C@H](n2c(CN/C(Cc3ccccc3)=N\\O)nc3cnc4[nH]ccc4c32)CC1", "IC50", 0.0113),
    ("N#CC[C@H]1CC[C@H](n2c(CC(=O)N3CCC[C@@H]3CO)nc3cnc4[nH]ccc4c32)CC1", "IC50", 0.0139),
    ("N#CCC12CCC(n3c(CC(=O)NCC4CCCCC4)nc4cnc5[nH]ccc5c43)(CC1)CC2", "IC50", 0.714),
    ("N#CCC12CCC(n3c(CC(=O)N4CCCCC4)nc4cnc5[nH]ccc5c43)(CC1)CC2", "IC50", 0.606),
    ("N#CC[C@H]1CC[C@H](n2c(CC(=O)NCc3ncc[nH]3)nc3cnc4[nH]ccc4c32)CC1", "IC50", 0.0022),
    ("N#CC[C@H]1CC[C@H](n2c(-c3cn[nH]n3)nc3cnc4[nH]ccc4c32)CC1", "IC50", 0.0037),
    ("C[Si](C)(C)[C@H]1CC[C@H](NC(=O)Cc2nc3cnc4[nH]ccc4c3n2[C@H]2CC[C@H](CC#N)CC2)CC1", "IC50", 0.0255),
    ("N#CC[C@H]1CC[C@H](n2c(CC(=O)N3CC(O)C3)nc3cnc4[nH]ccc4c32)CC1", "IC50", 0.0064),
    ("Cc1c[nH]c2ncc3nc(CC(=O)NCC(C)(C)O)n([C@H]4CC[C@H](CC#N)CC4)c3c12", "IC50", 0.458),
    ("N#CC[C@H]1CC[C@H](n2c(C(=O)NC3COC3)nc3cnc4[nH]ccc4c32)CC1", "IC50", 0.0216),
    ("N#CC[C@H]1CC[C@H](n2c(-c3ccnc(N)n3)nc3cnc4[nH]ccc4c32)CC1", "IC50", 0.009),
    ("N#CC[C@H]1CC[C@H](n2c(-c3nn[nH]n3)nc3cnc4[nH]ccc4c32)CC1", "IC50", 0.0191),
    ("N#CC[C@H]1CC[C@H](n2c(C(=O)NCC3(O)COC3)nc3cnc4[nH]ccc4c32)CC1", "IC50", 0.0041),
    ("N#CC[C@H]1CC[C@H](n2c(CC(=O)N[C@H]3CC[C@H](O)CC3)nc3cnc4[nH]ccc4c32)CC1", "IC50", 0.0038),
    ("CC(C)/C(N)=N/OCc1nc2cnc3[nH]ccc3c2n1[C@H]1CC[C@H](CC#N)CC1", "IC50", 0.034),
    ("CC(C)(C)OCc1nc2cnc3[nH]ccc3c2n1[C@H]1CC[C@H](CC#N)CC1", "IC50", 0.0509),
    ("C[Si](C)(C)[C@H]1CC[C@@H](NC(=O)Cc2nc3cnc4[nH]ccc4c3n2[C@H]2CC[C@H](CC#N)CC2)CC1", "IC50", 0.0087),
    ("N#CCC12CCC(n3c(CC(N)=O)nc4cnc5[nH]ccc5c43)(CC1)CC2", "IC50", 0.158),
]

Cited source: patent US10981911B2
